- System: IRF3 signaling pathway (IRF-inducible ISG54 promotor) in THP1-Lucia ISG cells
- protocol-summary: THP1-Lucia ISG reporter assay: induction of IRF3-dependent luciferase activity
- Format: cell-based
- study-conditions: Homo sapiens, 10 μM compound, PMA-differentiated cells, 18 h after stimulation, read-out: THP1 ISG: fold increase of IRF3-dependent luciferase activity over background
Exercise: for every item that follows, state its recorded fold induction at 10 µM.

Below, each entry is followed by its recorded fold induction at 10 µM result.
Q) Which value of fold induction at 10 µM has been reported for O=C(Nc1nc2ccc(S(=O)(=O)N3CC[C@@H](O)C3)cc2s1)c1cc2ccccc2cc1OCCN1CCOCC1 in the records?
A) 2.4 to 4.9

Q) Fill in the blank: the reported fold induction at 10 µM of O=C(Nc1nc2ccc(S(=O)(=O)N3CCC3)cc2s1)c1cc2ccccc2cc1OCCCCN1CCOCC1 is ____.
A) 10 to 19

Count: 2. Required value per item: fold induction at 10 µM.
1. O=C(Nc1nc2ccc(Cc3ccccc3)cc2s1)c1cc2ccccc2cc1OCCN1CCOCC1
2. O=C(Nc1nc2ccc(S(=O)(=O)N3CCC3)cc2s1)c1cc2ccsc2cc1OCCN1CCOCC1

A)
2.4 to 4.9
20 to 39

For the 7 compounds below, give their fold induction at 10 µM values.
1. O=C(Nc1nc2ccc(S(=O)(=O)N3CCCC3)cc2s1)c1cc2ccsc2cc1OCCN1CCOCC1
2. O=C(Nc1nc2ccc(NC(=O)C3CCCCC3)cc2s1)c1ccc2ccccc2c1
3. O=C(Nc1nc2ccc(OCC(F)(F)F)cc2s1)c1cc2ccccc2cc1OCCCCN1CCOCC1
4. O=C(Nc1cc2ccc(S(=O)(=O)N3CCCC3)cc2s1)c1cc2c(cc1OCCCCN1CCOCC1)OCO2
5. O=C(Nc1cc2ccc(S(=O)(=O)N3CCCC3)cc2s1)c1ccc(-c2ccccc2)cc1OCCCCN1CCOCC1
6. O=C(Nc1nc2ccc(S(=O)(=O)N3CCOCC3)cc2s1)c1cc2ccccc2cc1OCCN1CCOCC1
7. O=C(Nc1ccccn1)c1ccc2nc(NC(=O)c3ccc4ccccc4c3)sc2c1

A)
["20 to 39", "10 to 19", "5 to 9.9", "20 to 39", "20 to 39", "20 to 39", "20 to 39"]

====

- Tested on: IRF3 signaling pathway (IRF-inducible ISG54 promotor) in THP1-Lucia ISG cells
- protocol-summary: THP1-Lucia ISG reporter assay: induction of IRF3-dependent luciferase activity
- Format: cell-based
- study-conditions: Homo sapiens, 10 μM compound, PMA-differentiated cells, 18 h after stimulation, read-out: THP1 ISG: fold increase of IRF3-dependent luciferase activity over background
Would you mind telling me the reported fold induction at 10 µM of each entry?

// worked examples, fold induction at 10 µM included
Q) For IRF3 signaling pathway (IRF-inducible ISG54 promotor) in THP1-Lucia ISG cells, provide fold induction at 10 µM of CS(=O)(=O)Nc1ccc2nc(NC(=O)c3cc4ccccc4cc3OCCCCN3CCOCC3)sc2c1 please.
A) 20 to 39

Q) Request - read-out fold induction at 10 µM | tested on IRF3 signaling pathway (IRF-inducible ISG54 promotor) in THP1-Lucia ISG cells | molecule COCC1CN(CCOc2cc3ccccc3cc2C(=O)Nc2nc3ccc(S(=O)(=O)N4CCCC4)cc3s2)CCO1 (stereo not shown)
A) 20 to 39

Value sought for every listed molecule: fold induction at 10 µM.
1. O=C(Nc1nc2ccc(S(=O)(=O)N3CCCC3)cc2s1)c1ccc(-c2ccccc2)cc1OCCCCN1CCOCC1
2. O=C(Nc1nc2ccc(S(=O)(=O)N3CC4(COC4)C3)cc2s1)c1cc2ccccc2cc1OCCN1CCOCC1
3. O=C(Nc1nc2ccc(S(=O)(=O)N3CCOCC3)cc2s1)c1cc2ccccc2cc1OCCCCN1CCOCC1
4. O=C(Nc1nc2ccc(SC(F)(F)F)cc2s1)c1ccc2ccccc2c1
5. O=C(Nc1cc2ccc(S(=O)(=O)N3CCC3)cc2s1)c1cc2ccccc2cc1OCCCCN1CCOCC1
6. O=C(Nc1cc2ccc(S(=O)(=O)N3CCCC3)cc2s1)c1cc2c(cc1OCCN1CCOCC1)OCO2

A)
1: 20 to 39; 2: 2.4 to 4.9; 3: 10 to 19; 4: 5 to 9.9; 5: 20 to 39; 6: 5 to 9.9

Batch of 8 molecules: report fold induction at 10 µM for each.
1. Cn1c(C(=O)Nc2nc3ccc(S(=O)(=O)N4CCCC4)cc3s2)cc2ccccc21
2. O=C(Nc1nc2ccc(S(=O)(=O)N3CCCC3)cc2s1)c1cc2ccccc2cc1OCCN1CC2CC(C1)O2
3. O=C(Nc1nc2ccc(S(=O)(=O)N3CCOCC3)cc2s1)c1ccc2ccccc2c1
4. O=C(Nc1nc2ccc(S(=O)(=O)N3CCCC3)cc2s1)c1ccc(-c2cccnc2)cc1
5. O=C(Nc1cc2ccc(S(=O)(=O)N3CCCC3)cc2s1)c1ccc(-c2ccccc2)cc1
6. O=C(Nc1ccc2nc(NC(=O)c3ccc4ccccc4c3)sc2c1)c1ccccc1
7. O=C(Nc1nc2ccc(S(=O)(=O)N3CCC(O)C3)cc2s1)c1cc2ccccc2cc1OCCN1CCOCC1 (stereo not shown)
8. O=C(Nc1cc2ccc(S(=O)(=O)N3CCCC3)cc2s1)c1ccc(-c2ccccc2)cc1OCCN1CCOCC1

A)
1. 10 to 19
2. 10 to 19
3. 10 to 19
4. 2.4 to 4.9
5. 20 to 39
6. 20 to 39
7. 10 to 19
8. < 2.4

====

Please go through the items and note down their fold induction at 10 µM.
- Test system: IRF3 signaling pathway (IRF-inducible ISG54 promotor) in THP1-Lucia ISG cells
- protocol-summary: THP1-Lucia ISG reporter assay: induction of IRF3-dependent luciferase activity
- Format: cell-based
- study-conditions: Homo sapiens, 10 μM compound, PMA-differentiated cells, 18 h after stimulation, read-out: THP1 ISG: fold increase of IRF3-dependent luciferase activity over background

Q) Endpoint output: fold induction at 10 µM of O=C(Nc1nc2ccc(C(=O)Nc3c(Cl)cccc3Cl)cc2s1)c1ccc2ccccc2c1 . Value?
A) 20 to 39

Q) # lookup: fold induction at 10 µM of N#Cc1ccc2nc(NC(=O)c3cc4ccccc4cc3OCCN3CCOCC3)sc2c1
A) 5 to 9.9

Q) Recorded fold induction at 10 µM of Cn1c(C(=O)Nc2nc3ccc(S(=O)(=O)N4CCC4)cc3s2)cc2ccccc21 , please.
A) 2.4 to 4.9

Q) For O=C(Nc1nc2ccc(SC(F)F)cc2s1)c1ccc2ccccc2c1 , what is its reported fold induction at 10 µM?
A) ≥ 40

Q) Item O=C(Nc1nc2ccc(S(=O)(=O)N3CCCC3)cc2s1)c1cc2ccsc2cc1OCCCCN1CCOCC1 has what recorded fold induction at 10 µM?
A) 5 to 9.9

Provide fold induction at 10 µM values for the following items, in order.
1. O=C(Nc1nc2ccc(S(=O)(=O)N3CC[C@@H](O)C3)cc2s1)c1cc2ccccc2cc1OCCCCN1CCOCC1
2. CS(=O)(=O)c1ccc2nc(NC(=O)c3cc4ccccc4cc3OCCN3CCOCC3)sc2c1
3. O=C(Nc1nc2ccc(SC(F)F)cc2s1)c1cc2ccccc2cc1OCCCCN1CCOCC1
4. O=C(Nc1nc2ccc(S(=O)(=O)N3CCCC3)cc2s1)c1cc2ccccc2cc1OCCN1C[C@H]2C[C@@H]1CO2
5. O=C(Nc1nc2ccc(S(=O)(=O)N3CCCC3)cc2s1)c1cc2c(cc1OCCCCN1CCOCC1)OCO2
6. O=C(Nc1nc2ccc(C(=O)Nc3c(Cl)cccc3Cl)cc2s1)c1ccc2ncccc2c1
7. CS(=O)(=O)Nc1ccc2nc(NC(=O)c3ccc4ccccc4c3)sc2c1
8. CN(C)S(=O)(=O)c1ccc2nc(NC(=O)c3cc4ccccc4cc3OCCN3CCOCC3)sc2c1

A)
["≥ 40", "< 2.4", "20 to 39", "20 to 39", "5 to 9.9", "20 to 39", "20 to 39", "10 to 19"]

Would you mind giving fold induction at 10 µM for every molecule in the list below?
1. O=C(Nc1nc2ccc(S(=O)(=O)N3CCC(O)C3)cc2s1)c1cc2ccccc2cc1OCCCCN1CCOCC1 (stereo not shown)
2. O=C(Nc1nc2ccc(S(=O)(=O)N3CCC3)cc2s1)c1cc2c(cc1OCCN1CCOCC1)OCO2
3. O=C(Nc1nc2ccc(OCC(F)(F)F)cc2s1)c1cc2ccccc2cc1OCCN1CCOCC1

A)
1: 10 to 19; 2: 5 to 9.9; 3: 2.4 to 4.9

====

- System: IRF3 signaling pathway (IRF-inducible ISG54 promotor) in THP1-Lucia ISG cells
- protocol-summary: THP1-Lucia ISG reporter assay: induction of IRF3-dependent luciferase activity
- Assay type: cell-based
- study-conditions: Homo sapiens, 10 μM compound, PMA-differentiated cells, 18 h after stimulation, read-out: THP1 ISG: fold increase of IRF3-dependent luciferase activity over background
parameter-measured: fold induction at 10 µM

Recorded results for 7 compounds are shown here.
Q) Using the record for O=C(Nc1cc2ccc(S(=O)(=O)N3CCCC3)cc2s1)c1cc2ccccc2cc1OCCCCN1CCOCC1 , report its fold induction at 10 µM.
A) 10 to 19

Q) Consider the compound shown here: O=C(Nc1nc2ccc(S(=O)(=O)N3CCCCC3)cc2s1)c1cc2ccccc2cc1OCCCCN1CCOCC1 What is its recorded fold induction at 10 µM?
A) 10 to 19

Q) Item CS(=O)(=O)Nc1ccc2nc(NC(=O)c3cc4ccccc4cc3OCCN3CCOCC3)sc2c1 has what recorded fold induction at 10 µM?
A) 2.4 to 4.9

Q) If you can, please state the reported fold induction at 10 µM value of O=C(Nc1nc2ccc(S(=O)(=O)N3CCCC3)cc2s1)c1cc2c(cc1OCCN1CCOCC1)CCC2 .
A) 10 to 19

Q) For the compound shown here, CS(=O)(=O)c1ccc2nc(NC(=O)c3ccc4ccccc4c3)sc2c1 , give the reported fold induction at 10 µM.
A) 10 to 19

Q) Any idea what fold induction at 10 µM was measured for O=C(Nc1nc2ccc(S(=O)(=O)N3CCC3)cc2s1)c1cc2ccsc2cc1OCCCCN1CCOCC1 ?
A) 2.4 to 4.9

Q) fold induction at 10 µM for O=C(Nc1cc2ccc(S(=O)(=O)N3CCCC3)cc2s1)c1cc2ccsc2cc1OCCCCN1CCOCC1 ?
A) 20 to 39

Would you kindly look at the next entry?
Q) What does the record list as fold induction at 10 µM for Cn1ccc2cc(OCCN3CCOCC3)c(C(=O)Nc3nc4ccc(S(=O)(=O)N5CCCC5)cc4s3)cc21 ?
A) 20 to 39
